The measurements presented in this section are drawn from patent US4760136A.

- experiment.summary: Acute toxicity, intravenous (once), ddY mice
- Assay type: in vivo
- conditions.used: mouse, in vivo, iv, formulated per Preparation Example
So I've got a bunch of compounds here, and I need their LD50 values.

COC1C(O)C(C)OC(OC2C(Oc3cccc4c(OC(=O)C(Cc5c[nH]c6ccccc56)NC(=O)OCc5ccccc5)c5c(=O)oc6ccc(C)c7c(=O)oc(c34)c5c67)OC(C)C3OC4(CCCCC4)OC32)C1O (centres unmarked) [compound 133]
≥ 100 mg/kg

Next compound, LD50 to be filled in.
Lab book: LD50 of COc1cccc(C(=O)Oc2c3cccc(O[C@@H]4O[C@H](C)[C@@H]5OC(CCc6ccccc6)O[C@@H]5[C@H]4O[C@H]4O[C@H](C)[C@H](O)[C@H](OC)[C@H]4O)c3c3oc(=O)c4c(C)ccc5oc(=O)c2c3c54)c1 (some centres unmarked) [compound 218] noted as ≥ 80 mg/kg

###

So I've got a bunch of compounds here, and I need their LD50 values.
- experiment.summary: Acute toxicity, intravenous (once), ddY mice
- Type: in vivo
- conditions.used: mouse, in vivo, iv, formulated per Preparation Example

COC1C(O)C(C)OC(OC2C(Oc3cccc4c(OC(C)=O)c5c(=O)oc6ccc(C)c7c(=O)oc(c34)c5c67)OC(C)C3OC(C)(C)OC32)C1O (stereo not shown)
≥ 60 mg/kg
COC1C(O)C(C)OC(OC2C(Oc3cccc4c(OC(=O)CCNC(=O)c5ccccc5)c5c(=O)oc6ccc(C)c7c(=O)oc(c34)c5c67)OC(C)C3OC(c4ccccc4)OC32)C1O (stereo not shown)
≥ 40 mg/kg
COC1C(O)C(C)OC(OC2C(Oc3cccc4c(OC(=O)CC(C)C)c5c(=O)oc6ccc(C)c7c(=O)oc(c34)c5c67)OC(C)C3OC(c4ccc(F)cc4)OC32)C1O (stereo not shown)
≥ 40 mg/kg
COC1C(O)C(C)OC(OC2C(Oc3cccc4c(OC(=O)CCNC=O)c5c(=O)oc6ccc(C)c7c(=O)oc(c34)c5c67)OC(C)C3OC(c4ccsc4)OC32)C1O (stereo not shown)
≥ 40 mg/kg
CO[C@H]1[C@@H](O)[C@@H](C)O[C@H](O[C@H]2[C@H](Oc3cccc4c(OC(=O)c5ccccc5Cl)c5c(=O)oc6ccc(C)c7c(=O)oc(c34)c5c67)O[C@H](C)[C@@H]3OC(c4cccc([N+](=O)[O-])c4)O[C@@H]32)[C@@H]1O (stereo partly shown)
≥ 80 mg/kg

Provide LD50 for all items below, preserving their order.
1. COc1ccc(C2OC3C(C)OC(Oc4cccc5c(OC(=O)CCNC(=O)c6ccccc6)c6c(=O)oc7ccc(C)c8c(=O)oc(c45)c6c78)C(OC4OC(C)C(O)C(OC)C4O)C3O2)cc1 (stereo not shown)
2. COC1C(O)C(C)OC(OC2C(Oc3cccc4c(OC(=O)CCCCCNC(=O)C(F)(F)F)c5c(=O)oc6ccc(C)c7c(=O)oc(c34)c5c67)OC(C)C3OC(c4ccccc4)OC32)C1O (stereo not shown)
3. CCCC(=O)Oc1c2cccc(OC3OC(C)C4OC(c5ccccc5)OC4C3OC3OC(C)C(O)C(OC)C3O)c2c2oc(=O)c3c(C)ccc4oc(=O)c1c2c43 (stereo not shown)
4. CO[C@H]1[C@@H](O)[C@@H](C)O[C@H](O[C@H]2[C@H](Oc3cccc4c(OC(=O)c5ccc(Br)cc5)c5c(=O)oc6ccc(C)c7c(=O)oc(c34)c5c67)O[C@H](C)[C@@H]3OC(C)(C)O[C@@H]32)[C@@H]1O
5. COC1C(O)C(C)OC(OC2C(Oc3cccc4c(OC(=O)CCNC(=O)CN)c5c(=O)oc6ccc(C)c7c(=O)oc(c34)c5c67)OC(C)C3OC(c4cccc(F)c4)OC32)C1O (stereo not shown)
6. COc1cccc(C(=O)Oc2c3cccc(O[C@@H]4O[C@H](C)[C@@H]5OC(c6ccccc6)O[C@@H]5[C@H]4O[C@H]4O[C@H](C)[C@H](O)[C@H](OC)[C@H]4O)c3c3oc(=O)c4c(C)ccc5oc(=O)c2c3c54)c1 (stereo partly shown)
7. CCC1OC2C(C)OC(Oc3cccc4c(OC(=O)CCNC(=O)C(F)(F)F)c5c(=O)oc6ccc(C)c7c(=O)oc(c34)c5c67)C(OC3OC(C)C(O)C(OC)C3O)C2O1 (stereo not shown)

Result ::
≥ 40 mg/kg
≥ 100 mg/kg
≥ 40 mg/kg
≥ 80 mg/kg
≥ 40 mg/kg
≥ 40 mg/kg
≥ 180 mg/kg

Provide LD50 for all items below, preserving their order.
1. COC1C(O)C(C)OC(OC2C(Oc3cccc4c(OC(=O)C(CN)C(C)C)c5c(=O)oc6ccc(C)c7c(=O)oc(c34)c5c67)OC(C)C3OC(c4ccccc4)OC32)C1O (stereo not shown)
2. COC1C(O)C(C)OC(OC2C(Oc3cccc4c(OC(=O)C(C)CN(C(=O)OCc5ccccc5)C(C)C)c5c(=O)oc6ccc(C)c7c(=O)oc(c34)c5c67)OC(C)C3OC(c4ccccc4)OC32)C1O (stereo not shown)

Result ::
≥ 40 mg/kg
≥ 40 mg/kg

Provide LD50 for all items below, preserving their order.
1. COC1C(O)C(C)OC(OC2C(Oc3cccc4c(OC(=O)COc5ccc(F)cc5)c5c(=O)oc6ccc(C)c7c(=O)oc(c34)c5c67)OC(C)C3OC(C)(C)OC32)C1O (stereo not shown)
2. COC1C(O)C(C)OC(OC2C(Oc3cccc4c(OC(=O)CCCCCNC(=O)C(F)(F)F)c5c(=O)oc6ccc(C)c7c(=O)oc(c34)c5c67)OC(C)C3OC(C)(C)OC32)C1O (stereo not shown)
3. COC1C(O)C(C)OC(OC2C(Oc3cccc4c(OC(=O)CCNC(=O)c5ccccc5)c5c(=O)oc6ccc(C)c7c(=O)oc(c34)c5c67)OC(C)C3OC(c4cccc(F)c4)OC32)C1O (stereo not shown)
4. COC1C(O)C(C)OC(OC2C(Oc3cccc4c(OC(=O)CN(C)C(=O)C(F)(F)F)c5c(=O)oc6ccc(C)c7c(=O)oc(c34)c5c67)OC(C)C3OC(c4ccccc4F)OC32)C1O (stereo not shown)
5. COC1C(O)C(C)OC(OC2C(Oc3cccc4c(OC(=O)CCNC(=O)OCc5ccccc5)c5c(=O)oc6ccc(C)c7c(=O)oc(c34)c5c67)OC(C)C3OC(C)(C)OC32)C1O (stereo not shown)

Result ::
1. ≥ 60 mg/kg
2. ≥ 100 mg/kg
3. ≥ 80 mg/kg
4. ≥ 80 mg/kg
5. ≥ 100 mg/kg

###

- experiment.summary: Acute toxicity, intravenous (once), ddY mice
- Assay type: in vivo
- conditions.used: mouse, in vivo, iv, formulated per Preparation Example
reported.property: LD50

A selection of reference data follows.
CO[C@H]1[C@@H](O)[C@@H](C)O[C@H](O[C@H]2[C@H](Oc3cccc4c(OC(=O)c5ccc(C#N)cc5)c5c(=O)oc6ccc(C)c7c(=O)oc(c34)c5c67)O[C@H](C)[C@@H]3OC(c4ccccc4Cl)O[C@@H]32)[C@@H]1O (stereo partly drawn)
≥ 80 mg/kg
C=CC(=O)Oc1c2cccc(O[C@@H]3O[C@H](C)[C@@H]4OC(C)(C)O[C@@H]4[C@H]3O[C@H]3O[C@H](C)[C@H](O)[C@H](OC)[C@H]3O)c2c2oc(=O)c3c(C)ccc4oc(=O)c1c2c43
≥ 80 mg/kg

Next molecule, LD50 to be filled in.
Lab book: LD50 of CCCCC(CC)C(=O)Oc1c2cccc(OC3OC(C)C4OC(C)(C)OC4C3OC3OC(C)C(O)C(OC)C3O)c2c2oc(=O)c3c(C)ccc4oc(=O)c1c2c43 (stereo not drawn) noted as ≥ 60 mg/kg

###

So I've got a bunch of compounds here, and I need their LD50 values.
- experiment.summary: Acute toxicity, intravenous (once), ddY mice
- Type: in vivo
- conditions.used: mouse, in vivo, iv, formulated per Preparation Example

A selection of reference data follows.
COC1C(O)C(C)OC(OC2C(Oc3cccc4c(OC(=O)CCNC(=O)c5ccccc5)c5c(=O)oc6ccc(C)c7c(=O)oc(c34)c5c67)OC(C)C3OC(c4ccc(Br)cc4)OC32)C1O (centres unmarked) [compound 123]
≥ 40 mg/kg
COC1C(O)C(C)OC(OC2C(Oc3cccc4c(OC(=O)C(CC[S+](C)[O-])NC(=O)OCc5ccccc5)c5c(=O)oc6ccc(C)c7c(=O)oc(c34)c5c67)OC(C)C3OC(C)(C)OC32)C1O (centres unmarked) [compound 102]
≥ 100 mg/kg
COC1C(O)C(C)OC(OC2C(Oc3cccc4c(OC(=O)CCC(C)=O)c5c(=O)oc6ccc(C)c7c(=O)oc(c34)c5c67)OC(C)C3OC(c4ccccc4)OC32)C1O (centres unmarked) [Compound No. 153]
≥ 40 mg/kg
COC1C(O)C(C)OC(OC2C(Oc3cccc4c(OC(=O)CC(C)C)c5c(=O)oc6ccc(C)c7c(=O)oc(c34)c5c67)OC(C)C3OC(c4ccccc4)OC32)C1O (centres unmarked) [Compound No. 169]
≥ 40 mg/kg

Lab book: LD50 of CO[C@H]1[C@@H](O)[C@@H](C)O[C@H](O[C@H]2[C@H](Oc3cccc4c(OC(=O)c5ccccc5Cl)c5c(=O)oc6ccc(C)c7c(=O)oc(c34)c5c67)O[C@H](C)[C@@H]3OC(C)(C)O[C@@H]32)[C@@H]1O [Compound No. 181] noted as ≥ 80 mg/kg
